Origin of values: patent US10765675B2

test system: TC-71 cells; test: cells; details: Homo sapiens, TC-71, 24 h, read-out: EC50 (concentration of drug that inhibits growth of the tumor cells by 50% as compared to vehicle-treated control)
Structures can show the parent of a compound that is named as a salt.
Outcome measure: pEC50
Answer as the number alone; pEC50 is minus log10 of concentration in mol/L.

Exercise: Missing value: pEC50, TC-71 cells, entry CN(C)C(=N)N=C(N)N [metformin, Metformin hydrochloride] . Fill in?
Solution: 1.94

###

test system: TC-32 cells; experiment: cells; settings: Homo sapiens, TC-32, 24 h, read-out: EC50 (concentration of drug that inhibits growth of the tumor cells by 50% as compared to vehicle-treated control)
Counter-ions that a name gives are not always drawn.
Outcome measure: pEC50
Answer as the number alone; pEC50 is minus log10 of concentration in mol/L.

Exercise: Missing value: pEC50, TC-32 cells, entry CN(C)C(=N)N=C(N)N [metformin, Metformin hydrochloride] . Fill in?
Solution: 1.93
